Here, each record is paired with measured % Activity 0.1 μM data.
ASSAY_SYSTEM: stearoyl-CoA desaturase (SCD) (Mus musculus)
Construct: % Remaining SCD activity compared to DMSO control in mouse liver microsome assay; from tissue; host or cells: mouse liver microsomes
Sequence (P13516 whole entry): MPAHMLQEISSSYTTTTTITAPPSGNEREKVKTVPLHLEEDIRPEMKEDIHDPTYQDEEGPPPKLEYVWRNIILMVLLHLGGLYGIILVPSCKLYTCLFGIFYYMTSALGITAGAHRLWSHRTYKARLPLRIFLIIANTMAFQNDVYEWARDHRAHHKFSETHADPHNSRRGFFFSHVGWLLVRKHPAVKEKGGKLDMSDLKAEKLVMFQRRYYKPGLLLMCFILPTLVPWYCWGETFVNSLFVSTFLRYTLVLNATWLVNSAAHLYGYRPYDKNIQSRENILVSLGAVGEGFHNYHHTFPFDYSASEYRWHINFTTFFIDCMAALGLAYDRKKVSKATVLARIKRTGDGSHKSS
ASSAY_METHOD_TEXT: SCD mouse liver microsome assay (tritiated stearoyl-CoA desaturation)
Assay type: biochemical
CONDITION: Table 5; % remaining SCD activity at 0.1 μM, mouse microsome assay
VALUE_TYPE: % Activity 0.1 μM

1) CCCCNC(=O)c1ccc(N2CCN(C(=O)c3ccccc3C(F)(F)F)CC2)nc1 | 64%
2) O=C(NCCCc1ccccc1)c1ccc(N2CCN(C(=O)c3cc(Cl)ccc3Cl)CC2)nc1 | 30%
3) O=C(NCCc1cccc(Cl)c1)c1ccc(N2CCN(C(=O)c3ccccc3C(F)(F)F)CC2)nc1 | 58%
4) CC(C)CCNC(=O)c1ccc(N2CCN(C(=O)c3cccc4ccccc34)CC2)nc1 | 31%
5) CC(C)CCNC(=O)c1ccc(N2CCN(C(=O)c3ccc(Cl)cc3Cl)CC2)nc1 | 38%
6) CCCCCNC(=O)c1ccc(N2CCN(C(=O)c3ccccc3Br)CC2)nc1 | 44%
7) CC(C)CCNC(=O)c1ccc(N2CCN(C(=O)c3ccccc3Br)CC2)nc1 | 26%
8) CCCCCNC(=O)c1ccc(N2CCN(C(=O)c3cc(Cl)ccc3Cl)CC2)nc1 | 38%
9) O=C(NCCCc1ccccc1)c1ccc(N2CCN(C(=O)c3ccccc3C(F)(F)F)CC2)nc1 | 26%
10) CCCCCCNC(=O)c1ccc(N2CCN(C(=O)c3ccccc3C(F)(F)F)CC2)nc1 | 45%
11) O=C(NCCc1ccccc1)c1ccc(N2CCN(C(=O)c3cc(Cl)ccc3Cl)CC2)nc1 | 30%
12) CCCCCNC(=O)c1ccc(N2CCN(C(=O)c3ccccc3C(F)(F)F)CC2)nc1 | 25%
13) O=C(NCCc1ccccc1)c1ccc(N2CCN(C(=O)c3ccccc3Br)CC2)nc1 | 37%

All values here come from patent US7390813B1.
